TARGET_OR_TEST_SYSTEM: recombinant Xenopus laevis CDC6 (rCDC6) (Xenopus laevis, UniProt P79946)
Construct: full-length; GST fusion from pGEX-6P-1 in E. coli Rosetta (DE3); GST cleaved with HRV 3C protease; Resource S and Superdex 200 purified
Sequence (P79946 1-554): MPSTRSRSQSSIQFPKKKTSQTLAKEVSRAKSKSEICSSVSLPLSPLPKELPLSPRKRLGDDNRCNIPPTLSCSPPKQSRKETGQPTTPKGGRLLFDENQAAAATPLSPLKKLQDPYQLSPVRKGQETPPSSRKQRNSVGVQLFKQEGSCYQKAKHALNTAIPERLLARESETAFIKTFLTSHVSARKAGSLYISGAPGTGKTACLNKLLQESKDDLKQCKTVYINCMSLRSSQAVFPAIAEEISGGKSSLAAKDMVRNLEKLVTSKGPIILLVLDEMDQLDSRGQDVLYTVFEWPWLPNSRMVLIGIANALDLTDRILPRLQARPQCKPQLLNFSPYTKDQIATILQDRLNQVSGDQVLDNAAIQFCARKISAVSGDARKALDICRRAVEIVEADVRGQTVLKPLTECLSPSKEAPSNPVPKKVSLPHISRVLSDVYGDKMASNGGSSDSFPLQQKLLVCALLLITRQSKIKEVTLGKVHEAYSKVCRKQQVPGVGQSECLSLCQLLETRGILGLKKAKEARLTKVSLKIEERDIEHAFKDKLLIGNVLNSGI
ASSAY: isothermal titration calorimetry, one-site fit
EXPERIMENTAL_CONTEXT: 25 °C; PBS, 10% glycerol, 1 mM MgCl2, 1 mM DTT, 1% DMSO; CDC6 74 μM (75 μM in methods) titrated with 1 mM compound
ASSAY_METRIC: pKd
Schema: pKd number; meaning minus log10 of the concentration expressed in molar units.

Record request: pKd value, item O=C1C(SCCO)=C(SCCO)C(=O)c2ccccc21 [NSC-95397] 6.49
